System: Canavalia ensiformis
measurement-protocol: Inhibition of jack bean alpha-mannosidase using p-nitrophenyl glycoside as substrate assessed as residual activity at 1 mM after 25 mins by spectrophotometer analysis
Activity under 80% gets satisfied, anything at or over 80% gets not satisfied.

• O=P(O)(O)OC[C@@H]1C[C@H](O)[C@@H](CO)N1 = satisfied
• OC[C@@H]1C[C@H](O)[C@@H](CO)N1 = not satisfied
• O=C(NCCP(=O)(O)O)[C@@H]1C[C@H](O)[C@@H](CO)N1 = not satisfied
• O=C1OC[C@@H]2C[C@H](O)[C@@H](CO)N12 = satisfied

* * *

System: Prunus dulcis
measurement-protocol: Inhibition of sweet almond beta-glucosidase using p-nitrophenyl glycoside as substrate assessed as residual activity at 1 mM after 25 mins by spectrophotometer analysis
Listed here: items and their measured Activity.
measure: Activity

- O=C(O)[C@@H]1C[C@H](O)[C@@H](CO)N1: 115%
- O=P(O)(O)OC[C@@H]1C[C@H](O)[C@@H](CO)N1: 96.1%
- O=C(NCCP(=O)(O)O)[C@@H]1C[C@H](O)[C@@H](CO)N1: 83.6%
- O=C1OC[C@@H]2C[C@H](O)[C@@H](CO)N12: 75.7%
- OC[C@@H]1C[C@H](O)[C@@H](CO)N1: 1.7%

* * *

target-system: UniProt:Q42656
measurement-protocol: Inhibition of green coffee bean alpha-galactosidase using p-nitrophenyl glycoside as substrate assessed as residual activity at 1 mM after 25 mins by spectrophotometer analysis
measure: Activity (%)

- O=C(NCCP(=O)(O)O)[C@@H]1C[C@H](O)[C@@H](CO)N1: 107
- OC[C@@H]1C[C@H](O)[C@@H](CO)N1: 50.4
- O=C(O)[C@@H]1C[C@H](O)[C@@H](CO)N1: 95.2
- O=C1OC[C@@H]2C[C@H](O)[C@@H](CO)N12: 5.4
- O=P(O)(O)OC[C@@H]1C[C@H](O)[C@@H](CO)N1: 91.9

* * *

target-system: Alpha-galactosidase (Coffea arabica)
Sequence (Q42656 whole entry): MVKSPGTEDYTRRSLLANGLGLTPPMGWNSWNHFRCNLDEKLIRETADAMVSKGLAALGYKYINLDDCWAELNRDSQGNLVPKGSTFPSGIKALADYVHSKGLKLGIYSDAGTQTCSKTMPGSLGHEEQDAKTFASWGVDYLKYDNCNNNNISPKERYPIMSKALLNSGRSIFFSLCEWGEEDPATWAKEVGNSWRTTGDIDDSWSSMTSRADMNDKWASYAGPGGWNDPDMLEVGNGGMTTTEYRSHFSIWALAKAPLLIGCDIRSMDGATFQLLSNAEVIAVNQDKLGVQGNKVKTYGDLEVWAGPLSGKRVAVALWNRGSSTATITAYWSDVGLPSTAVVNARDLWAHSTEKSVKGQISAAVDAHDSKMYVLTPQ
measure: Ki

- O=C1OC[C@@H]2C[C@H](O)[C@@H](CO)N12: 40.8 µM

* * *

Tested on: Helix pomatia
measurement-protocol: Inhibition of Helix pomatia beta-mannosidase using p-nitrophenyl glycoside as substrate assessed as residual activity at 1 mM after 25 mins by spectrophotometer analysis
Listed here: items and their measured Activity.
measure: Activity (%)

- O=C(NCCP(=O)(O)O)[C@@H]1C[C@H](O)[C@@H](CO)N1: 93.7
- O=P(O)(O)OC[C@@H]1C[C@H](O)[C@@H](CO)N1: 100
- O=C1OC[C@@H]2C[C@H](O)[C@@H](CO)N12: 98.7
- O=C(O)[C@@H]1C[C@H](O)[C@@H](CO)N1: 99.3
- OC[C@@H]1C[C@H](O)[C@@H](CO)N1: 97

* * *

target-system: Beta-galactosidase (Escherichia coli) (UniProt Q8VNN2)
Sequence (Q8VNN2 whole entry, looked up): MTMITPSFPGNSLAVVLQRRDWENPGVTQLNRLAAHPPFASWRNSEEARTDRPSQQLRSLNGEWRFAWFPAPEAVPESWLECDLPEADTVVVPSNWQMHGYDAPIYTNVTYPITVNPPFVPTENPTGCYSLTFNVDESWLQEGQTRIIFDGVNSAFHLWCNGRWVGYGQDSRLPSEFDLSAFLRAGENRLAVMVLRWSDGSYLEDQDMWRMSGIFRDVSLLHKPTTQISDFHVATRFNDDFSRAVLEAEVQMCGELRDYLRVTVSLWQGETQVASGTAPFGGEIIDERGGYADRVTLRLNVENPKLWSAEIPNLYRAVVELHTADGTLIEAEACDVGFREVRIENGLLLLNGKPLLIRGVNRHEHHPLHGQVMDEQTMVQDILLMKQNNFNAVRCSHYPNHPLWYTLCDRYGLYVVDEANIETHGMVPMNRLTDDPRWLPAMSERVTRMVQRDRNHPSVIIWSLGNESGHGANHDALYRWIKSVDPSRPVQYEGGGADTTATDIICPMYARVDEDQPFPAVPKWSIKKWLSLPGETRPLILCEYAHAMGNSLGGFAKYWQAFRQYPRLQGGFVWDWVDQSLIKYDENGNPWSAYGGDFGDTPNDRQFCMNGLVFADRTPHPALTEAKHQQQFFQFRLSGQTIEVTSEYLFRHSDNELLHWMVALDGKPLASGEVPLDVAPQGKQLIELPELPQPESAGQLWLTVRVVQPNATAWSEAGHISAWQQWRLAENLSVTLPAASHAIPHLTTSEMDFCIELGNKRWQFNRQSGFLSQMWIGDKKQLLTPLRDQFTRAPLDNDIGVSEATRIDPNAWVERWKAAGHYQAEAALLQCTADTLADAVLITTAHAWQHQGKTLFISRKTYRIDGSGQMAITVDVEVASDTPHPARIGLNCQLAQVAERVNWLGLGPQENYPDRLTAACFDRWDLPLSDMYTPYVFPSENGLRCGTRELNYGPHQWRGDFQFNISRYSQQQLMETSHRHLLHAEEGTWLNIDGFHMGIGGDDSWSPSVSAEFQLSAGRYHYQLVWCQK
measurement-protocol: Inhibition of Escherichia coli beta-galactosidase using p-nitrophenyl glycoside as substrate assessed as residual activity at 1 mM after 25 mins by spectrophotometer analysis
Activity under 90% gets yes, anything at or over 90% gets no.

• O=P(O)(O)OC[C@@H]1C[C@H](O)[C@@H](CO)N1 = no
• O=C(NCCP(=O)(O)O)[C@@H]1C[C@H](O)[C@@H](CO)N1 = yes
• OC[C@@H]1C[C@H](O)[C@@H](CO)N1 = yes
• O=C1OC[C@@H]2C[C@H](O)[C@@H](CO)N12 = no

Provenance of the data: ChEMBL document CHEMBL3132787
